src = the supplement of paper PMC10126150

- Test system: ATP;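 further: ATP exposure 15 min at 22 °C before imaging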
- TEST_METHOD_NOTES: switch fluorescence ratio, 500 uM ATP over buffer (Cy3 cluster intensity, sum of 5 cycles each) (fold (ratio)); higher = stronger signal-on switching upon ATP binding; sequences stand for … in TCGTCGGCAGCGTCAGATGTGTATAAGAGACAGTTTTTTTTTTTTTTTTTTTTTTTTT…TC
- APPLIED_CONDITIONS: aptamer strand: ATP DNA aptamer (quencher-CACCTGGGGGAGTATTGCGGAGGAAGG + anchor), 100 nM annealed; ATP concentration: 500 uM
Hi there, I'd appreciate the recorded switch fluorescence ratio for every entry that follows.
Reply with the value as a number alone.

Asked: Which switch fluorescence ratio is reported for this sequence? `TTAACATTAC`
Given back: 1.38

Asked: Which switch fluorescence ratio is reported for this sequence? `TGGGCGCATT`
Given back: 1.68

Asked: Which switch fluorescence ratio is reported for this sequence? `TGGGGTACAT`
Given back: 0.991

Asked: Which switch fluorescence ratio is reported for this sequence? `AAAAGAAAAG`
Given back: 1.01

Asked: Which switch fluorescence ratio is reported for this sequence? `ACTTGTCGCG`
Given back: 1.02

Asked: Which switch fluorescence ratio is reported for this sequence? `TCACAATGCG`
Given back: 1.06

Asked: Which switch fluorescence ratio is reported for this sequence? `GAATGAGCGT`
Given back: 0.98

Asked: Which switch fluorescence ratio is reported for this sequence? `AGACTTGTTA`
Given back: 0.971

Asked: Which switch fluorescence ratio is reported for this sequence? `GATGCTGGGT`
Given back: 1.01

Asked: Which switch fluorescence ratio is reported for this sequence? `GCGGTTCAGT`
Given back: 1.01

Asked: Which switch fluorescence ratio is reported for this sequence? `ATAGCCGGGT`
Given back: 1.04

Asked: Which switch fluorescence ratio is reported for this sequence? `TAATAATGAG`
Given back: 0.981

Asked: Which switch fluorescence ratio is reported for this sequence? `AAGGCGACGT`
Given back: 0.994

Asked: Which switch fluorescence ratio is reported for this sequence? `GTGGTTGGTA`
Given back: 1.02

Asked: Which switch fluorescence ratio is reported for this sequence? `TTTGGTTAGG`
Given back: 0.985

Asked: Which switch fluorescence ratio is reported for this sequence? `TGCTTTAGGT`
Given back: 0.992

Asked: Which switch fluorescence ratio is reported for this sequence? `CGGTGAGTGG`
Given back: 1.01

Asked: Which switch fluorescence ratio is reported for this sequence? `TCGGTGGTGG`
Given back: 0.997

Asked: Which switch fluorescence ratio is reported for this sequence? `TCGCATAGGT`
Given back: 1.1

Asked: Which switch fluorescence ratio is reported for this sequence? `TGCGCGAAAT`
Given back: 0.995

Asked: Which switch fluorescence ratio is reported for this sequence? `ATACTAGGGG`
Given back: 1.01

Asked: Which switch fluorescence ratio is reported for this sequence? `TGTAACGCTG`
Given back: 0.974

Asked: Which switch fluorescence ratio is reported for this sequence? `TGCCAAATAG`
Given back: 1.02

Asked: Which switch fluorescence ratio is reported for this sequence? `ATCAGGGGGG`
Given back: 1.02

Asked: Which switch fluorescence ratio is reported for this sequence? `ACACATCGGA`
Given back: 1

Asked: Which switch fluorescence ratio is reported for this sequence? `AGAGCGGCAA`
Given back: 2.81

Asked: Which switch fluorescence ratio is reported for this sequence? `GTCGTCTTTT`
Given back: 1.01

Asked: Which switch fluorescence ratio is reported for this sequence? `ACGGGGCGTA`
Given back: 0.986

Asked: Which switch fluorescence ratio is reported for this sequence? `TCGTGTACTG`
Given back: 1.04

Asked: Which switch fluorescence ratio is reported for this sequence? `GCGGACTAGT`
Given back: 0.988

Asked: Which switch fluorescence ratio is reported for this sequence? `TTTTAGGCCT`
Given back: 1.04

Asked: Which switch fluorescence ratio is reported for this sequence? `AGCGCCTTTG`
Given back: 0.991

Asked: Which switch fluorescence ratio is reported for this sequence? `GAGCAGGGGG`
Given back: 1.01

Asked: Which switch fluorescence ratio is reported for this sequence? `GGGGGCGGTC`
Given back: 0.997

Asked: Which switch fluorescence ratio is reported for this sequence? `ATTTTTCTGC`
Given back: 1.03

Asked: Which switch fluorescence ratio is reported for this sequence? `TGGTGGCCCG`
Given back: 1.04

Asked: Which switch fluorescence ratio is reported for this sequence? `GTACGGGGGA`
Given back: 1

Asked: Which switch fluorescence ratio is reported for this sequence? `GTGGATAGGT`
Given back: 1.01

Asked: Which switch fluorescence ratio is reported for this sequence? `ATATTTTGTA`
Given back: 0.983

Asked: Which switch fluorescence ratio is reported for this sequence? `CTAAGGCGGG`
Given back: 1.01

Asked: Which switch fluorescence ratio is reported for this sequence? `AAGTTATTAC`
Given back: 1

Asked: Which switch fluorescence ratio is reported for this sequence? `GCATAAGATG`
Given back: 1

Asked: Which switch fluorescence ratio is reported for this sequence? `TTTTTTACTA`
Given back: 1.02

Asked: Which switch fluorescence ratio is reported for this sequence? `CGCCGCGTCA`
Given back: 1

Asked: Which switch fluorescence ratio is reported for this sequence? `TTACTTATCT`
Given back: 1.02

Asked: Which switch fluorescence ratio is reported for this sequence? `TCTTTTTGGA`
Given back: 1.02

Asked: Which switch fluorescence ratio is reported for this sequence? `ATATCAATGG`
Given back: 1.06

Asked: Which switch fluorescence ratio is reported for this sequence? `TTATAAAGGT`
Given back: 1.03

Asked: Which switch fluorescence ratio is reported for this sequence? `TCCGTGGGGA`
Given back: 1.16

Asked: Which switch fluorescence ratio is reported for this sequence? `TAGCCTAGTT`
Given back: 0.963

Asked: Which switch fluorescence ratio is reported for this sequence? `TGAAGGTCGG`
Given back: 0.992

Asked: Which switch fluorescence ratio is reported for this sequence? `TTTGTGTGGC`
Given back: 0.99

Asked: Which switch fluorescence ratio is reported for this sequence? `GTTTGTGCGG`
Given back: 0.981

Asked: Which switch fluorescence ratio is reported for this sequence? `AATCGGGTGC`
Given back: 1.05

Asked: Which switch fluorescence ratio is reported for this sequence? `AATGGCCAAG`
Given back: 1

Asked: Which switch fluorescence ratio is reported for this sequence? `TAAGAATTCC`
Given back: 1.08

Asked: Which switch fluorescence ratio is reported for this sequence? `GTTTGGGGTC`
Given back: 0.984

Asked: Which switch fluorescence ratio is reported for this sequence? `TTTTGTGAAT`
Given back: 0.956

Asked: Which switch fluorescence ratio is reported for this sequence? `AGCAGAGGAC`
Given back: 0.971

Asked: Which switch fluorescence ratio is reported for this sequence? `CAGCGGGCGT`
Given back: 0.963

Asked: Which switch fluorescence ratio is reported for this sequence? `AATGGGTAC`
Given back: 1.01

Asked: Which switch fluorescence ratio is reported for this sequence? `TAGTGTATTG`
Given back: 1.01

Asked: Which switch fluorescence ratio is reported for this sequence? `TTGAGGGAGC`
Given back: 1.09

Asked: Which switch fluorescence ratio is reported for this sequence? `GCCTCGGGGG`
Given back: 0.953

Asked: Which switch fluorescence ratio is reported for this sequence? `TGGGGATTTA`
Given back: 1

Asked: Which switch fluorescence ratio is reported for this sequence? `CTGTAGATTG`
Given back: 0.983

Asked: Which switch fluorescence ratio is reported for this sequence? `CACCAAGGTT`
Given back: 1.15

Asked: Which switch fluorescence ratio is reported for this sequence? `AAGTAGGTAT`
Given back: 1.02

Asked: Which switch fluorescence ratio is reported for this sequence? `CTGGTTTTAT`
Given back: 0.982

Asked: Which switch fluorescence ratio is reported for this sequence? `TATTGCGGCA`
Given back: 1.01

----------
Hi there, I'd appreciate the recorded switch fluorescence ratio for every entry that follows.
- Tested on: ATP;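 further: ATP exposure 15 min at 22 °C before imaging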
- TEST_METHOD_NOTES: switch fluorescence ratio, 500 uM ATP over buffer (Cy3 cluster intensity, sum of 5 cycles each) (fold (ratio)); higher = stronger signal-on switching upon ATP binding; sequences stand for … in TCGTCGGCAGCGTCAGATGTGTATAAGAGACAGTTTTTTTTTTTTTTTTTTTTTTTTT…TC
- APPLIED_CONDITIONS: aptamer strand: ATP DNA aptamer (quencher-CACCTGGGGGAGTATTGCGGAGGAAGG + anchor), 100 nM annealed; ATP concentration: 500 uM
Reply with the value as a number alone.

Asked: Which switch fluorescence ratio is reported for this sequence? `TCGAGCAGGG`
Given back: 1.07

Asked: Which switch fluorescence ratio is reported for this sequence? `ATAAAGTTTC`
Given back: 1.03

Asked: Which switch fluorescence ratio is reported for this sequence? `GTGTATATCG`
Given back: 0.991

Asked: Which switch fluorescence ratio is reported for this sequence? `GTGGAAAGTA`
Given back: 0.997

Asked: Which switch fluorescence ratio is reported for this sequence? `TTTTATGTTG`
Given back: 1.01

Asked: Which switch fluorescence ratio is reported for this sequence? `AAGTATTGGT`
Given back: 1.02

Asked: Which switch fluorescence ratio is reported for this sequence? `CTTGGAGTTT`
Given back: 1

Asked: Which switch fluorescence ratio is reported for this sequence? `GGGTAAGTTT`
Given back: 1.01

Asked: Which switch fluorescence ratio is reported for this sequence? `AATAGGAAGT`
Given back: 1.01

Asked: Which switch fluorescence ratio is reported for this sequence? `TTTACGTGCG`
Given back: 1.05

Asked: Which switch fluorescence ratio is reported for this sequence? `AAGGGACGGC`
Given back: 0.965

Asked: Which switch fluorescence ratio is reported for this sequence? `TCACGCTTCA`
Given back: 1.12
